Test: Half life in orally and iv dosed Squirrel monkey
Format: ADME, organism-based, Saimiri sciureus
Details: in vivo
Below is a list of entries, each paired with its recorded half-life value.

CHEMICAL STRING	half-life
Cc1noc(/C(=C/c2cccc(-c3cc(C(C)(C)S(C)(=O)=O)cc4cccnc34)c2)c2ccc(S(C)(=O)=O)cc2)n1	4 h
CC(C)(O)c1ccc(-c2cccc(-n3cc(C(=O)NC4CC4)c(=O)c4cccnc43)c2)c[n+]1[O-]	4 h
O=C(NC1CC1)c1cn(-c2cccc(C#Cc3ccc[n+]([O-])c3)c2)c2ncccc2c1=O	5 h

###

Parameter IC50: see the listing below.
Molecular target: Voltage-gated inwardly rectifying potassium channel KCNH2 (Homo sapiens)
Sequence (Q12809 whole entry): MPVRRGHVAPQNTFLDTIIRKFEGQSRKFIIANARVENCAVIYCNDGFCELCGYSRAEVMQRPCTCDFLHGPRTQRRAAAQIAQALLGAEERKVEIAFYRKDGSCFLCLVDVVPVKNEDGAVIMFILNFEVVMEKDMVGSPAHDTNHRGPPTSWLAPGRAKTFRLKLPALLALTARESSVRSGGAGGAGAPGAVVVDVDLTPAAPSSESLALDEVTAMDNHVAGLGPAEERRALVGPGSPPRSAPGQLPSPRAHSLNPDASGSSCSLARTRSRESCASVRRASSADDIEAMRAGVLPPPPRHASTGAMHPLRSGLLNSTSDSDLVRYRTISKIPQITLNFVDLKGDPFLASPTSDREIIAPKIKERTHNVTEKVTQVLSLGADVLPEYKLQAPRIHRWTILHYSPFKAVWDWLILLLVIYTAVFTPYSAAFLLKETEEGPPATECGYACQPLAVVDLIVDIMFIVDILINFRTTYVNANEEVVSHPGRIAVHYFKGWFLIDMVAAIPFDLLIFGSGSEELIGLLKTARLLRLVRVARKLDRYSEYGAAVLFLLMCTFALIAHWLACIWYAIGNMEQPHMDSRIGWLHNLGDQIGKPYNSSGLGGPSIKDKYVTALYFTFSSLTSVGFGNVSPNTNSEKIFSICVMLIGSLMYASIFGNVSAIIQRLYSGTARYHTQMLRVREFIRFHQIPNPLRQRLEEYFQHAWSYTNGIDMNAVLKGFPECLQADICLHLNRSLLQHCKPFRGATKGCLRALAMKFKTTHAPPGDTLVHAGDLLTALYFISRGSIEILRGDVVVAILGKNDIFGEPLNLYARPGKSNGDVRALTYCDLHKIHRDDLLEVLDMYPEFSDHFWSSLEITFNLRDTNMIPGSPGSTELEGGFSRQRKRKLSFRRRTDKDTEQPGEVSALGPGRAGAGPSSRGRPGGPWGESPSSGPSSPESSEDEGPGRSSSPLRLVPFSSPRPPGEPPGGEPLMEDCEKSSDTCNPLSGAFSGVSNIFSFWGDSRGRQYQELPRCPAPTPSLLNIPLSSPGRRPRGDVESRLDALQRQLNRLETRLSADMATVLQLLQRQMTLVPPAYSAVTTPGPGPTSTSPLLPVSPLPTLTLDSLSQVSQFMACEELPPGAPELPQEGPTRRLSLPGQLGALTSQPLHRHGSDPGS

CHEMICAL STRING	TARGET OR TEST SYSTEM	IC50, µM
CC(C)NC(=O)c1cn(-c2ccccc2)c2ncccc2c1=O	Voltage-gated inwardly rectifying potassium channel KCNH2 (Homo sapiens)	71.5
CC(=O)c1cccc(-c2cccc(-n3cc(C(=O)NC(C)C)c(=O)c4cccnc43)c2)c1	Voltage-gated inwardly rectifying potassium channel KCNH2 (Homo sapiens)	6.96
CSc1ccc(-c2cccc(-n3cc(C(=O)NC(C)C)c(=O)c4cccnc43)c2)cc1	Voltage-gated inwardly rectifying potassium channel KCNH2 (Homo sapiens)	0.96
CC(C)(O)c1ccc(-c2cccc(-n3cc(C(=O)NC4CC4)c(=O)c4cccnc43)c2)c[n+]1[O-]	Voltage-gated inwardly rectifying potassium channel KCNH2 (Homo sapiens)	50.1
CC(C)(O)c1ccc(C#Cc2cccc(-n3cc(C(=O)NC4CC4)c(=O)c4cccnc43)c2)c[n+]1[O-]	Voltage-gated inwardly rectifying potassium channel KCNH2 (Homo sapiens)	89.4
CCOc1cccc(-c2cccc(-n3cc(C(=O)NC(C)C)c(=O)c4cccnc43)c2)c1	Voltage-gated inwardly rectifying potassium channel KCNH2 (Homo sapiens)	2.7
O=C(NC1CC1)c1cn(-c2cccc(C#Cc3cccnc3)c2)c2ncccc2c1=O	Voltage-gated inwardly rectifying potassium channel KCNH2 (Homo sapiens)	16.7
O=C(NC1CC1)c1cn(-c2cccc(-c3ccncc3)c2)c2ncccc2c1=O	Voltage-gated inwardly rectifying potassium channel KCNH2 (Homo sapiens)	18.6

###

Catalogue of bioavailability readings, one per entry.
Test: Bioavailability in orally and iv dosed rat
Type: ADME, organism-based
Conditions: in vivo, po

CHEMICAL STRING	bioavailability / %
O=C(NC1CC1)c1cn(-c2cccc(C#Cc3ccc[n+]([O-])c3)c2)c2ncccc2c1=O	98
CC(C)(O)c1ccc(-c2cccc(-n3cc(C(=O)NC4CC4)c(=O)c4cccnc43)c2)c[n+]1[O-]	87
Cc1noc(/C(=C/c2cccc(-c3cc(C(C)(C)S(C)(=O)=O)cc4cccnc34)c2)c2ccc(S(C)(=O)=O)cc2)n1	95

###

Target: 3',5'-cyclic-AMP phosphodiesterase 4A (Homo sapiens, UniProt P27815)
Sequence (P27815 whole entry): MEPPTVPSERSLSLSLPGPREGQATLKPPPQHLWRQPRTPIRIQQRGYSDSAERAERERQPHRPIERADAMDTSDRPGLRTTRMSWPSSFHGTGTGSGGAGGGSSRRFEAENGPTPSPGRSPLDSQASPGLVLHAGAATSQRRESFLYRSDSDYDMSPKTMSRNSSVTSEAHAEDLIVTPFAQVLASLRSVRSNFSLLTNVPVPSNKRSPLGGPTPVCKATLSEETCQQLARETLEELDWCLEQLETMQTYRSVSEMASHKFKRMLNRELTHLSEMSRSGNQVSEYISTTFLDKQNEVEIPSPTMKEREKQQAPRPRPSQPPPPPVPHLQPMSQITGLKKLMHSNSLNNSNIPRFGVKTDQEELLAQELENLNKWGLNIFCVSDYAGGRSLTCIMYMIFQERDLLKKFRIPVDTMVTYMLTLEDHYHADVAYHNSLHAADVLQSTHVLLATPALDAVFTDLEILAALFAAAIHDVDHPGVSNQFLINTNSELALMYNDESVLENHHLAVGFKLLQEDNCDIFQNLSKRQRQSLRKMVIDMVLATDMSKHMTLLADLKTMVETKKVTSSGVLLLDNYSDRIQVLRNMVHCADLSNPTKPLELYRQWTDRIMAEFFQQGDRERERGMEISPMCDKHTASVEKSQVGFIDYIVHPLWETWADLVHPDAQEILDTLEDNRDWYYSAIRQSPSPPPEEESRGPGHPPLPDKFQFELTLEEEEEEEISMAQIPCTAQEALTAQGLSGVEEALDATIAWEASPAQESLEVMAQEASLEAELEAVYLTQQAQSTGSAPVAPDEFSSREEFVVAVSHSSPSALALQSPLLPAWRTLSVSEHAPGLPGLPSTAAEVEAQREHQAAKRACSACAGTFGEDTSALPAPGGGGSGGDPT
Binary label based on IC50 with cut-off 6 nM: below gives criterion met, not below gives criterion not met.

CHEMICAL STRING	CAT
CC(=O)c1cccc(-c2cccc(-n3cc(C(=O)Nc4c(Cl)cncc4Cl)c(=O)c4cccnc43)c2)c1	criterion met
NC(=O)c1cn(-c2cccc(Br)c2)c2ncccc2c1=O	criterion not met
Cc1noc(/C(=C/c2cccc(-n3cc(C(=O)Nc4c(Cl)cncc4Cl)c(=O)c4cccnc43)c2)c2ccc(S(C)(=O)=O)cc2)n1	criterion met
Cc1ccc(-n2cc(C(=O)NC(C)C)c(=O)c3cccnc32)cc1Br	criterion not met
CC(C)N(C)C(=O)c1cn(-c2cccc(Br)c2)c2ncccc2c1=O	criterion not met
CC(C)(O)c1ccc(-c2cccc(-n3cc(C(=O)NC4CC4)c(=O)c4cccnc43)c2)c[n+]1[O-]	criterion not met
O=C(Nc1c(Cl)cncc1Cl)c1cn(-c2ccc(Cl)cc2)c2ncccc2c1=O	criterion met

###

Experiment: Bioavailability in orally and iv dosed dog
Assay type: ADME, organism-based, Canis lupus familiaris
Conditions: in vivo, po
compounds and their reported bioavailability
PARAMETER: bioavailability (%)

COMPOUND	UNIT LABEL	OBS VALUE
Cc1noc(/C(=C/c2cccc(-c3cc(C(C)(C)S(C)(=O)=O)cc4cccnc34)c2)c2ccc(S(C)(=O)=O)cc2)n1	%	55
O=C(NC1CC1)c1cn(-c2cccc(C#Cc3ccc[n+]([O-])c3)c2)c2ncccc2c1=O [MK-0873]	%	100
CC(C)(O)c1ccc(-c2cccc(-n3cc(C(=O)NC4CC4)c(=O)c4cccnc43)c2)c[n+]1[O-]	%	100

###

Experiment: Bioavailability in orally and iv dosed Squirrel monkey
Assay type: ADME, organism-based, Saimiri sciureus
Conditions: in vivo, po

COMPOUND	bioavailability, %
Cc1noc(/C(=C/c2cccc(-c3cc(C(C)(C)S(C)(=O)=O)cc4cccnc34)c2)c2ccc(S(C)(=O)=O)cc2)n1	33
O=C(NC1CC1)c1cn(-c2cccc(C#Cc3ccc[n+]([O-])c3)c2)c2ncccc2c1=O [MK-0873]	38
CC(C)(O)c1ccc(-c2cccc(-n3cc(C(=O)NC4CC4)c(=O)c4cccnc43)c2)c[n+]1[O-]	33

###

Catalogue of half-life readings, one per entry.
Assay: Half life in orally and iv dosed dog
Format: ADME, organism-based, Canis lupus familiaris
Conditions: in vivo
PARAMETER: half-life (min)

CHEMICAL STRING	UNIT LABEL	OBS VALUE
CC(C)(O)c1ccc(-c2cccc(-n3cc(C(=O)NC4CC4)c(=O)c4cccnc43)c2)c[n+]1[O-]	min	120
Cc1noc(/C(=C/c2cccc(-c3cc(C(C)(C)S(C)(=O)=O)cc4cccnc34)c2)c2ccc(S(C)(=O)=O)cc2)n1	min	300
O=C(NC1CC1)c1cn(-c2cccc(C#Cc3ccc[n+]([O-])c3)c2)c2ncccc2c1=O	min	120

###

Target: Voltage-gated inwardly rectifying potassium channel KCNH2 (Homo sapiens)

CHEMICAL STRING	TARGET OR TEST SYSTEM	RESULT OPERATOR	IC50 / µM
CC(C)NC(=O)c1cn(-c2cccc(Br)c2)c2ncccc2c1=O	Voltage-gated inwardly rectifying potassium channel KCNH2 (Homo sapiens)	=	31.6
CS(=O)(=O)c1ccc(-c2cccc(-n3cc(C(=O)NC4CC4)c(=O)c4cccnc43)c2)cn1	Voltage-gated inwardly rectifying potassium channel KCNH2 (Homo sapiens)	=	13.6
NC(=O)c1cn(-c2cccc(Br)c2)c2ncccc2c1=O	Voltage-gated inwardly rectifying potassium channel KCNH2 (Homo sapiens)	>	94.5
O=C(Nc1c(Cl)cncc1Cl)c1cn(-c2ccc(Cl)cc2)c2ncccc2c1=O	Voltage-gated inwardly rectifying potassium channel KCNH2 (Homo sapiens)	=	0.198
CC(C)NC(=O)c1cn(-c2cccc(-c3ccc(S(C)(=O)=O)cc3)c2)c2ncccc2c1=O	Voltage-gated inwardly rectifying potassium channel KCNH2 (Homo sapiens)	=	23
